Values were extracted from patent US20120077731A1.

- target or system: T1, Cyno IL-6R (cynomolgus monkey, UniProt A0A2K5WN54 60-396)
- T1 construct: also called cynomolgus monkey IL-6R; recombinant cyno sIL-6R
- T1 sequence: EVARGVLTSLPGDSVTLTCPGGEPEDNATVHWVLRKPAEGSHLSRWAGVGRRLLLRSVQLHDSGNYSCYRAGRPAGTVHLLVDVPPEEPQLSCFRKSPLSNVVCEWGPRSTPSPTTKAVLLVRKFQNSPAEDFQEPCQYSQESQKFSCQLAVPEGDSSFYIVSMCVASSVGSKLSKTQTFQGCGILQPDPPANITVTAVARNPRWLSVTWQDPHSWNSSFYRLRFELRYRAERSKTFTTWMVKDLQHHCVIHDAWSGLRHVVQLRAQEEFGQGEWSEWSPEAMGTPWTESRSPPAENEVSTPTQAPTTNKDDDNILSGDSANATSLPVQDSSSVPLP
- protocol summary: SPR Biacore 3000, cyno IL-6R amine-coupled to CM5
Exercise: for every item that follows, state its recorded koff.
Answer with a number only, understood to be in s⁻¹.

I have this binder here, IL6R201 (VHH, also called tagless version of IL6R75; 16R201/75) VHH: EVQLVESGGGLVQPGGSLRLSCAASGFTFSDYDIGWFRQAPGKGREGVSGISSSDGNTYYADSVKGRFTISRDNAKNTLYLQMNSLRPEDTAVYYCAAEPPDSSWYLDGSPEFFKYWGQGTLVTVSS , and I need its recorded koff. 0.00611

Request: IL6R04 (VHH, also called PMP32C9; not shown: C-terminal c-myc and (His)6 tags) VHH: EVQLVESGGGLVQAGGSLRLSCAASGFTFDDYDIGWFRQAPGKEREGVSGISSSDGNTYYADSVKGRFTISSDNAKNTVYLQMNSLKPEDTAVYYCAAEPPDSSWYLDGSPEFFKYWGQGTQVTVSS 0.01

What about this binder? IL6R03 (VHH, also called PMP31A4; not shown: C-terminal c-myc and (His)6 tags) VHH: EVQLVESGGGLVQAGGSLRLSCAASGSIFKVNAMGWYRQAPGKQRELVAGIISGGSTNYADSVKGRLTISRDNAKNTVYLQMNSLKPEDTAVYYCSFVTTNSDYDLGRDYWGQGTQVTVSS 0.00164

Now give it for IL6R65 (VHH, also called ILR65; parent Nanobody) VHH: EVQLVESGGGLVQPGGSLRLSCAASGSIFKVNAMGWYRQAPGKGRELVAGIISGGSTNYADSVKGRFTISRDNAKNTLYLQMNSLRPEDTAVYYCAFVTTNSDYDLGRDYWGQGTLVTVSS too. 0.00197
